Entry source: paper PMC9352680

Recorded pKd, one value per entry.
# ASSAY TARGET: T1, PUF4 RNA-binding domain (Saccharomyces cerevisiae, UniProt P25339 537-888)
# T1 sequence: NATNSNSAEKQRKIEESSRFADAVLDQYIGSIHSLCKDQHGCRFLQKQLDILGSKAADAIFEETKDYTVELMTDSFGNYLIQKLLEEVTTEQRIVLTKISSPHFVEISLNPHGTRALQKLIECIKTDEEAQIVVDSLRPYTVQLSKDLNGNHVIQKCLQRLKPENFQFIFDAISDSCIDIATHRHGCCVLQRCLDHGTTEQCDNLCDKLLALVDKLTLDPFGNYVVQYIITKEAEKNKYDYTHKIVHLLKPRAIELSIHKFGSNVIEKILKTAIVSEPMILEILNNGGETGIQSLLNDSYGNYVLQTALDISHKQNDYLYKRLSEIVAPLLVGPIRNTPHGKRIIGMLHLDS
# PROCEDURE SUMMARY: Mg; RNA-MaP; 20 mM Na-HEPES pH 7.4, 30 mM KOAc, 0.75 mM MgCl2, 0.1% Tween-20, 5% glycerol, 0.1 mg/mL BSA, 2 mM DTT; 25 C; 0.0125-409.6 nM protein
# MEASUREMENT SETUP: tags: N-His6-TEV cleaved; C-SNAP kept, Cy3B-labelled; label: tethered on chip by stalled RNA polymerase
pKd: −log10 of the molar value.

{"BINDER": "UCUCUUCUUGUAUUAUUAAUUCUCUU (ssRNA) [Id_ii_S1_P5E.2_K5.1_C5.2_H5.1_A5.1_F5.1_T5.2_[T11A]_[A12T]]", "pKd": 8.06}
{"BINDER": "Ie_S2_P3E.2_K3.1_C3.2_[+-1CC]_H3.1_A3.1_F3.1_T3.2 (ssRNA) RNA: UUUGAUUAAUAUGAUAUCGUUCUUUCUCUCCUGUAUAUAUAUUCUUUCUCGAUAUCAUAUUAAUCUUU", "pKd": 9.03}
{"BINDER": "UCUCUUUGUAAGCGUCUCUU (ssRNA) [Ic_S1_P3E.1_K3.1_C3.1_H3.1_A3.1_[T5A]_[A6G]_F3.1_[T7C]_[A8G]_T3.1]", "pKd": 5.72}
{"BINDER": "UCUCUUUUUGUAUUAUUAAAUCUCUU (ssRNA) [Id_ii_S1_P5E.2_K5.1_C5.2_[C-2T]_H5.1_A5.1_F5.1_T5.2_[T11A]]", "pKd": 7.79}
{"BINDER": "Ic_S4_P5E.1_K5.1_C5.1_H5.1_A5.1_[A7T]_F5.1_[T8G]_[T9C]_[A10G]_T5.1 (ssRNA) RNA: UUUGACAACUGAUCGUUCUUUCUUGUAUUUGCGUUCUUUCUCGAUCAGUUGUCUUU", "pKd": 6.71}
{"BINDER": "UCUCUUUGUACUUAUUAUCUCUU (ssRNA) [Ie_S1_P5E.1_K5.1_C5.1_H5.1_[+4C]_A5.1_F5.1_T5.1]", "pKd": 7.84}
